- Tested target: T1, human LAG3 (form used in Octet, Biacore and HDX-MS not given) (human, UniProt P18627 23-450, limits assumed)
- T1 sequence (looked up): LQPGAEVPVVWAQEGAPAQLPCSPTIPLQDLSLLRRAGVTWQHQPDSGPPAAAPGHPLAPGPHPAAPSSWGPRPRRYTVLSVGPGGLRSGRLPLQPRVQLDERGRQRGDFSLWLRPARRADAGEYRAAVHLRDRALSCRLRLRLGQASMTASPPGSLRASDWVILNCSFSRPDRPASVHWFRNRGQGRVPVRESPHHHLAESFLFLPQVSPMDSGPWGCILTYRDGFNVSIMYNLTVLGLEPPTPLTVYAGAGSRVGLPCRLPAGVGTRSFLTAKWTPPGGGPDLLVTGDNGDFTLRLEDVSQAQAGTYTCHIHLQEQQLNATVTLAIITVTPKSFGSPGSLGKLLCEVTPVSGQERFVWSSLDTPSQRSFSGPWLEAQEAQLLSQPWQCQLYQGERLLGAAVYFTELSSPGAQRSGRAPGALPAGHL
- Method: BLI (Octet)
Endpoint: Kd

Query: Quick check: Kd of hu023.05 (antibody, human IgG4, V domains shown, humanized from 023c) VH: QVQLVQSGAEVKKPGASVKVSCKASGYTFTESPMNWVRQAPGQGFEWMGIIYTDTGEPTYAEEFKGRVTMTRDTSTSTVYMELSSLRSEDTAVYFCASDYGSILYWYFDVWGQGTLVTVSS VL: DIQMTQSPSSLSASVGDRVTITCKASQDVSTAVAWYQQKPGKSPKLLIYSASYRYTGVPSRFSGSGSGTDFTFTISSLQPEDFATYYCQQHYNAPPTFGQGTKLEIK ?
Result: 0.616 nM

Cited source: patent US20250313625A1
